All figures here come from paper PMC10299588.

test: Stability in liver microsomes; format: in vitro ADME, mouse; conditions: male, CD-1, mouse, liver microsomes, pH 7.4, no NRS; compound 1 between 20 and 60 min; compound 2 over 30 min; read-out: half-life of degradation, negative control (no NRS added)
READOUT_TYPE: half-life at 1 µM (h)
Value expressed in h; do not type the unit.

Inquiry: I'd like to know its half-life at 1 µM. The compound in question is "COc1c(Br)cc(/C=C/C(=O)NCCCNCCCCN)cc1Br"
Reply text: 1.5

###

assay: Stability in liver microsomes; assay type: in vitro ADME, human; details: both sexes, human, liver microsomes, pH 7.4, with NADPH regeneration system, 1.0 µM, 0.5 mg/mL microsomes; read-out: half-life of degradation
READOUT_TYPE: half-life at 1 µM (min)
Value expressed in min; do not type the unit.

Inquiry: I'd like to know its half-life at 1 µM. The compound in question is "COc1c(Br)cc(/C=C/C(=O)NCCCNCCCCN)cc1Br"
Reply text: 35.7
